Target: P2X purinoceptor 7 (Homo sapiens)
Assay: Antagonist activity at human cloned P2X7 receptor expressed in HEK293 cells assessed as inhibition of calcium flux by FLIPR assay
pIC50: −log10 of the molar value.
metric_name: pIC50

- compound: "COc1ccc(CC(=O)NC(N/C(=N/C#N)Nc2cccc3ncccc23)C(C)(C)C)cc1OC (stereo not given)"
  assay_system: "P2X purinoceptor 7 (Homo sapiens)"
  pIC50: 7.40

(A) COc1ccc(CC(=O)NC(N=C(NC#N)Nc2ccccc2F)C(C)(C)C)cc1OC (stereo not given)
(B) COc1ccc(CC(=O)NC(N=C(NC#N)Nc2cccc(C)c2)C(C)(C)C)cc1OC (stereo not given)
(C) Cc1ccc(CC(=O)NC(NC(=NC#N)Nc2cccnc2C)C(C)(C)C)cc1F (stereo not given)
(D) CSc1ccc(CC(=O)NC(N=C(NC#N)Nc2ccccc2C)C(C)(C)C)cc1 (stereo not given)
[in] Reorder the items by pIC50, least to greatest. Answer by naming the labels in the order asked.
[out] B, A, C, D
(B: 6.00, A: 6.70, C: 7.20, D: 7.50)

---

Target: P2X purinoceptor 7 (Homo sapiens, UniProt Q99572)
Sequence (Q99572 whole entry): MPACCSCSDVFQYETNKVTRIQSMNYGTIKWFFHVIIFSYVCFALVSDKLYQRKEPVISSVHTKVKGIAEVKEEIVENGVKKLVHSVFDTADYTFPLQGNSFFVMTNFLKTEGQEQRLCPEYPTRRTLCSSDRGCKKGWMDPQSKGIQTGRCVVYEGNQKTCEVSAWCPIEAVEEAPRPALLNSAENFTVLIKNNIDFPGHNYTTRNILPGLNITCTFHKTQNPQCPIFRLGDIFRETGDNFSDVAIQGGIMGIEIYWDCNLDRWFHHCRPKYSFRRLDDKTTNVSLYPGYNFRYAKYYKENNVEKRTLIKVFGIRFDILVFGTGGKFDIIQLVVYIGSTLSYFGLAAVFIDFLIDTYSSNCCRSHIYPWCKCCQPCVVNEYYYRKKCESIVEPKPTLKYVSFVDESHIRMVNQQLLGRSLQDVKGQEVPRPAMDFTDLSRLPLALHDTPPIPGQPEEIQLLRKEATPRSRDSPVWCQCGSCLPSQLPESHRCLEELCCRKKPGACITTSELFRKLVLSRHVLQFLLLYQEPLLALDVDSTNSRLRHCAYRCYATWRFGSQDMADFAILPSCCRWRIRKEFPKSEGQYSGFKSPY
Assay: Antagonist activity at human cloned P2X7 receptor expressed in HEK293 cells assessed as inhibition of calcium flux by FLIPR assay
metric_name: IC50 (nM)

- compound: "COc1ncccc1NC(=NC#N)NC(NC(=O)c1ccc(Cl)cc1)C(C)(Cl)Cl (centres undefined)"
  measured_result: 63.1

(P) COc1ccc(CC(=O)NC(NC(=NC#N)Nc2cccnc2OC)C(C)(C)C)cc1OC (centres undefined)
(Q) COc1ccc(CC(=O)NC(NC(=NC#N)Nc2ccccc2C)C(C)(C)C)cc1OC (single isomer, unassigned; (+))
(R) O=C(CC12CC3CC(CC(C3)C1)C2)Nc1ccc2[nH]ncc2c1
[in] Reorder the items by IC50, least to greatest. Answer by naming the labels in the order asked.
[out] Q, P, R
(Q: 63.1 nM, P: 100 nM, R: 158 nM)
